Consider the following compounds and their measured chromatographic logP readings.
assay.name: Determination of log P values by HPLC on reversed-phase column (formic acid method)
Type: physicochemical
condition.label: reversed-phase HPLC column (C 18), pH 3.4, HPLC, reversed-phase C 18, acidic range (pH 3.4), formic acid eluents, 55° C.; read-out: logP (HCOOH)
Give the figure by itself; no unit, no explanation.

Example entries and their recorded answers appear below.
{"compound": "O=C(NCc1ncccn1)c1nnc(-c2cccnc2)s1", "chromatographic logP": 0.85}
{"compound": "Cc1nc(-c2cncnc2)sc1C(=O)N(C)C", "chromatographic logP": 1}
{"compound": "Cc1nc(-c2cccnc2)sc1C(=O)NC(C#N)C(C)C (stereo not drawn)", "chromatographic logP": 1.85}

Consider Cc1nc(-c2cccnc2)sc1C(=O)N(C)C(C)c1ccccn1 (stereo not drawn) . Its measured chromatographic logP is 1.45

Consider Cc1nc(-c2cccnc2)sc1C(=O)NC1CSC1 . Its measured chromatographic logP is 1.47

Consider CN(CC(F)(F)F)C(=O)c1cnc(-c2cccnc2)s1 . Its measured chromatographic logP is 1.59

----------
Consider the following molecules and their measured chromatographic logP readings.
assay.name: Determination of log P values by HPLC on reversed-phase column (formic acid method)
Assay type: physicochemical
condition.label: reversed-phase HPLC column (C 18), pH 3.4, HPLC, reversed-phase C 18, acidic range (pH 3.4), formic acid eluents, 55° C.; read-out: logP (HCOOH)
Give the figure by itself; no unit, no explanation.

Example entries and their recorded answers appear below.
{"molecule": "CC(=O)CNC(=O)c1sc(-c2cccnc2)nc1C", "numeric.result": 1.02}
{"molecule": "NC(=O)c1cnc(-c2cccnc2)s1", "numeric.result": 0.29}
{"molecule": "Cc1nc(-c2cccnc2)sc1C(=O)NC(C(C)C)C(F)(F)F (centres unmarked)", "numeric.result": 2.48}
{"molecule": "Cc1nc(-c2cccnc2)sc1C(=O)NCC1CCCCC1", "numeric.result": 2.43}

Consider Cc1nc(-c2cccnc2)sc1C(=O)N(C)CCC#N . Its measured chromatographic logP is 1.1

----------
assay.name: Determination of log P values by HPLC on reversed-phase column (formic acid method)
Type: physicochemical
condition.label: reversed-phase HPLC column (C 18), pH 3.4, HPLC, reversed-phase C 18, acidic range (pH 3.4), formic acid eluents, 55° C.; read-out: logP (HCOOH)
readout.type: chromatographic logP
Give the figure by itself; no unit, no explanation.

Example entries and their recorded answers appear below.
{"compound": "COC(=O)C1(NC(=O)c2sc(-c3cccnc3)nc2C)CC1", "numeric.result": 1.3}
{"compound": "Cc1cc(CN(C)C(=O)c2sc(-c3cccnc3)nc2C)no1", "numeric.result": 1.52}
{"compound": "Cc1nc(-c2cccnc2)sc1C(=O)NC(C)c1ncccn1 (stereo not shown)", "numeric.result": 1.24}
{"compound": "C=CN(Cc1ncccn1)C(=O)c1cc(-c2cncc(F)c2)nn1C", "numeric.result": 1.75}
{"compound": "Cc1nc(-c2cccnc2)sc1C(=O)NC(C)(C#N)C1CC1 (stereo not shown)", "numeric.result": 1.76}

Consider CON(C)C(=O)c1cc(-c2cccnc2)nn1C . Its measured chromatographic logP is 0.49

Consider Cc1cc(CNC(=O)c2sc(-c3cccnc3)nc2C)n(C)n1 . Its measured chromatographic logP is 1.23

Consider Cc1nc(-c2cccnc2)sc1C(=O)N(CC#N)C(C)C . Its measured chromatographic logP is 1.56

Consider Cc1nc(-c2cccnc2)sc1C(=O)NCc1cccnc1 . Its measured chromatographic logP is 0.46

Consider CNC(=O)c1cnc(-c2cccnc2)s1 . Its measured chromatographic logP is 0.62

----------
Consider the following compounds and their measured chromatographic logP readings.
assay.name: Determination of log P values by HPLC on reversed-phase column (formic acid method)
Type: physicochemical
condition.label: reversed-phase HPLC column (C 18), pH 3.4, HPLC, reversed-phase C 18, acidic range (pH 3.4), formic acid eluents, 55° C.; read-out: logP (HCOOH)
Give the figure by itself; no unit, no explanation.

{"compound": "Cc1nc(C)n(C(C)CNC(=O)c2sc(-c3cccnc3)nc2C)n1 (stereo not drawn)", "numeric.result": 1.06}
{"compound": "Cc1nc(-c2ccc[n+]([O-])c2)sc1C(=O)NCC(F)(F)F", "numeric.result": 1.31}
{"compound": "O=C(NCc1ccncn1)c1cnc(-c2cccnc2)s1", "numeric.result": 0.73}
{"compound": "COc1ccc(CN(CC(F)(F)F)C(=O)c2sc(-c3cccnc3)nc2C)cc1", "numeric.result": 2.91}

Consider Cc1nc(-c2cccnc2)sc1C(=O)N(C)CC(=O)N(C)C . Its measured chromatographic logP is 0.8

Consider Cc1nc(-c2cccnc2)sc1C(=O)NCC(C)Cl (stereo not drawn) . Its measured chromatographic logP is 1.69

Consider O=C(NCc1ncccn1)c1cnc(-c2cccnc2)s1 . Its measured chromatographic logP is 0.81

----------
assay.name: Determination of log P values by HPLC on reversed-phase column (formic acid method)
Assay type: physicochemical
condition.label: HPLC, reversed-phase C 18, acidic range (pH 3.4), formic acid eluents, 55° C.; read-out: logP (HCOOH)
readout.type: chromatographic logP
Give the figure by itself; no unit, no explanation.

{"chemical.smiles": "COC(=O)N(C)NC(=O)c1sc(-c2cccnc2)nc1C", "numeric.result": 1.23}

Consider CN(C)C(=O)c1nnc(-c2cccnc2)s1 . Its measured chromatographic logP is 0.95

Consider CCOC(=O)N(C)NC(=O)c1sc(-c2cccnc2)nc1C . Its measured chromatographic logP is 1.48

Consider Cc1nc(-c2cccnc2)sc1C(=O)NCCCl . Its measured chromatographic logP is 1.41

Consider CCOC(=O)NC(C)(C)CNC(=O)c1sc(-c2cccnc2)nc1C . Its measured chromatographic logP is 1.75

Consider COC(=O)N(CC(F)(F)F)C(=O)c1sc(-c2cccnc2)nc1C . Its measured chromatographic logP is 2.46

Consider C#CCOC(=O)N(CC(F)(F)F)C(=O)c1sc(-c2cccnc2)nc1C . Its measured chromatographic logP is 2.63

----------
assay.name: Determination of log P values by HPLC on reversed-phase column (formic acid method)
Assay type: physicochemical
condition.label: reversed-phase HPLC column (C 18), pH 3.4, HPLC, reversed-phase C 18, acidic range (pH 3.4), formic acid eluents, 55° C.; read-out: logP (HCOOH)
readout.type: chromatographic logP
Give the figure by itself; no unit, no explanation.

{"compound": "COC(=O)C[n+]1cccc(-c2nc(C)c(C(=O)NCC(F)(F)F)s2)c1", "chromatographic logP": 1.09}
{"compound": "CN(Cc1cccnc1)C(=O)c1cnc(-c2cccnc2)s1", "chromatographic logP": 0.98}

Consider Cc1nc(-c2cccnc2)sc1C(=O)NC1(c2ccccn2)CC1 . Its measured chromatographic logP is 0.97

Consider Cc1nc(-c2cccnc2)sc1C(=O)NC(C)CF (stereo not shown) . Its measured chromatographic logP is 1.42

----------
assay.name: Determination of log P values by HPLC on reversed-phase column (formic acid method)
Format: physicochemical
condition.label: pH 7.5, pH=7.5; read-out: log P (pH=7.5)
readout.type: chromatographic logP
Give the figure by itself; no unit, no explanation.

Consider O=C(NCc1ncccn1)c1nnc(-c2cccnc2)s1 . Its measured chromatographic logP is 0.85

----------
Consider the following compounds and their measured logP (HCOOH) readings.
assay.name: Determination of log P values by HPLC on reversed-phase column (formic acid method)
Type: physicochemical
condition.label: HPLC, reversed-phase C 18, acidic range (pH 3.4), formic acid eluents, 55° C.
Give the figure by itself; no unit, no explanation.

Example entries and their recorded answers appear below.
{"compound": "Cc1nc(-c2cccnc2)sc1C(=O)NC(C#N)C(C)C (stereo not shown)", "readout.type": "logP (HCOOH)", "numeric.result": 1.57}
{"compound": "Cc1nc(-c2cccnc2)sc1C(=S)NCC(F)(F)F", "readout.type": "logP (HCOOH)", "numeric.result": 2.38}
{"compound": "Cc1nc(-c2cccnc2)sc1C(=O)NCC(C)F (stereo not shown)", "readout.type": "logP (HCOOH)", "numeric.result": 1.13}

Consider CSC[C@H](C)NC(=O)c1sc(-c2cccnc2)nc1C . Its measured logP (HCOOH) is 1.65

----------
assay.name: Determination of log P values by HPLC on reversed-phase column (formic acid method)
Format: physicochemical
condition.label: reversed-phase HPLC column (C 18), pH 3.4, HPLC, reversed-phase C 18, acidic range (pH 3.4), formic acid eluents, 55° C.; read-out: logP (HCOOH)
readout.type: chromatographic logP
Give the figure by itself; no unit, no explanation.

{"molecule": "CCc1nccc(CNC(=O)c2cnc(-c3cccnc3)s2)n1", "chromatographic logP": 1.19}

Consider CSCC(C)(C)NC(=O)c1sc(-c2cccnc2)nc1C . Its measured chromatographic logP is 2.05

Consider CC(c1ccccn1)N(C)C(=O)c1cnc(-c2cccnc2)s1 (stereo not shown) . Its measured chromatographic logP is 1.21

Consider Cc1nc(-c2cccnc2)sc1C(=O)NCC1OCCCO1 . Its measured chromatographic logP is 1.27

Consider Cc1nc(-c2cccnc2)sc1C(=O)N(C)CC(C)(F)F . Its measured chromatographic logP is 1.65

Consider Cc1nc(-c2cncc(Br)c2)sc1C(=O)NCC(F)(F)F . Its measured chromatographic logP is 2.61

Consider Cc1nc(-c2cccnc2)sc1C(=O)N(C)CC(=O)OC(C)C . Its measured chromatographic logP is 1.78

Consider Cc1nc(-c2cccnc2)sc1C(=O)N(C)CC(C)F (stereo not shown) . Its measured chromatographic logP is 1.5

Consider Cc1nc(-c2cccnc2)sc1C(=O)NCC1COC(C)(C)O1 (stereo not shown) . Its measured chromatographic logP is 1.48

Consider Cc1nc(-c2cccnc2)sc1C(=O)NCc1ccon1 . Its measured chromatographic logP is 1.14
